Documented Activity across a set of molecules
Tested on: Schoenoplectiella juncoides
Protocol Text: Post-emergence herbicidal activity against Schoenoplectiella juncoides assessed as weed killing at 2 kg ai/ha measured 30 days after compound treatment under green house conditions
Assay type: functional
Metric Name: Activity

Molecule: CN(C1=NC(=O)C(C)(CCCl)S1)c1ccccc1 (stereo not given)
Target System: Schoenoplectiella juncoides
Value Measured: 80%
//
Molecule: CC1SC(N(C)c2ccccc2)=NC1=O (stereo not given)
Target System: Schoenoplectiella juncoides
Value Measured: 20%
//
Molecule: CCN(C1=NC(=O)C(C)(C)S1)c1ccccc1
Target System: Schoenoplectiella juncoides
Value Measured: 20%
//
Molecule: CC1(C)SC(Nc2ccccc2)=NC1=O
Target System: Schoenoplectiella juncoides
Value Measured: 60%
//
Molecule: CCC1(C)SC(N(C)c2ccccc2)=NC1=O (stereo not given)
Target System: Schoenoplectiella juncoides
Value Measured: 40%
//
Molecule: CN(C1=NC(=O)C(C)(C)S1)c1ccccc1
Target System: Schoenoplectiella juncoides
Value Measured: 60%
//
Molecule: CN(Cc1ccccc1)C1=NC(=O)C(C)(C)S1
Target System: Schoenoplectiella juncoides
Value Measured: 0%
//
Molecule: CC1CCc2ccccc2N1C1=NC(=O)C(C)(C)S1 (stereo not given)
Target System: Schoenoplectiella juncoides
Value Measured: 80%
//
Molecule: CCCCN(C)C1=NC(=O)C(C)(C)S1
Target System: Schoenoplectiella juncoides
Value Measured: 0%
//
Molecule: CC1(C)SC(N2CCOc3ccccc32)=NC1=O
Target System: Schoenoplectiella juncoides
Value Measured: 40%
//
Molecule: CC1COc2ccccc2N1C1=NC(=O)C(C)(C)S1 (stereo not given)
Target System: Schoenoplectiella juncoides
Value Measured: 80%
//
Molecule: CC1(C)SC(N2CCCc3ccccc32)=NC1=O
Target System: Schoenoplectiella juncoides
Value Measured: 60%
//
Molecule: CN(C1=NC(=O)CS1)c1ccccc1
Target System: Schoenoplectiella juncoides
Value Measured: 0%
//
Molecule: CC1(C)SC(N2CCc3ccccc32)=NC1=O
Target System: Schoenoplectiella juncoides
Value Measured: 20%
//
Molecule: CCCC1(C)SC(N(C)c2ccccc2)=NC1=O (stereo not given)
Target System: Schoenoplectiella juncoides
Value Measured: 20%

All values here come from ChEMBL document CHEMBL3045680.
